Field: decrease in drug exposure seen by cells on the far side relative to the near side. Provide a value for each of the compounds that follow.
Test system: HCT-116 MCCs
Assay: MCC penetration assay, effect-based (BrdUrd S-phase labeling after exposure from one side)
Format: cell-based, human
Conditions: 1 day after 1-h exposure; near-side concentration matching the effect of 10 μM on the far side

# annotated cases, reported decrease in drug exposure seen by cells on the far side relative to the near side shown
Specify measured decrease in drug exposure seen by cells on the far side relative to the near side for `COc1cccc2c1C(=O)c1c(O)c3c(c(O)c1C2=O)C[C@@](O)(C(=O)CO)C[C@@H]3O[C@H]1C[C@H](N)[C@H](O)[C@H](C)O1` . ~12 fold

Specify measured decrease in drug exposure seen by cells on the far side relative to the near side for `COc1cccc2c1C(=O)c1c(O)c3c(c(O)c1C2=O)C[C@@](O)(C(C)=O)C[C@@H]3O[C@H]1C[C@H](N)[C@H](O)[C@H](C)O1` . ~30 fold

Kindly review the next compound as well.
Specify measured decrease in drug exposure seen by cells on the far side relative to the near side for COc1cccc2c1C(=O)c1c(O)c3c(c(O)c1C2=O)C[C@@](O)(C(=O)CO)C[C@@H]3O[C@H]1C[C@H](N)[C@@H](O)[C@H](C)O1 [EPI, epirubicin] . ~10 fold
